System: AGS cell lines (human gastric adenocarcinoma)
Experiment: MTT reduction cytotoxicity assay
Assay type: cell-based
Settings: 0.1 μg/mL, 24 h
The threshold is 50%. Values of mean percentage of viable cells ± SD beneath it are tagged criterion met; values meeting or exceeding it are tagged criterion not met.

Qu. Hello, is mean percentage of viable cells ± SD of the following compound strictly smaller than 50%? CC1CC(=O)OC(c2ccc(F)cc2)C1Br (mixture of isomers) [8c]
Ans. criterion not met

Qu. Hello, is mean percentage of viable cells ± SD of the following compound strictly smaller than 50%? CC1CC(=O)OC(c2ccc(F)cc2)C1I (mixture of isomers) [10c]
Ans. criterion met

Qu. Hello, is mean percentage of viable cells ± SD of the following compound strictly smaller than 50%? CC1CC(=O)OC(c2ccccc2)C1Br (mixture of isomers)
Ans. criterion met

Qu. Hello, is mean percentage of viable cells ± SD of the following compound strictly smaller than 50%? CC1CC(=O)OC(c2cccc3ccccc23)C1Cl (mixture of isomers)
Ans. criterion met

Qu. Hello, is mean percentage of viable cells ± SD of the following compound strictly smaller than 50%? CC1CC(=O)OC(c2ccccc2)C1I (mixture of isomers) [10b]
Ans. criterion not met

Qu. Hello, is mean percentage of viable cells ± SD of the following compound strictly smaller than 50%? CC1CC(=O)OC(c2cccc3ccccc23)C1Br (mixture of isomers)
Ans. criterion not met

Qu. Hello, is mean percentage of viable cells ± SD of the following compound strictly smaller than 50%? CC1CC(=O)OC(c2ccc(F)cc2)C1Br (centres unmarked) [7c]
Ans. criterion not met

Qu. Hello, is mean percentage of viable cells ± SD of the following compound strictly smaller than 50%? CC1CC(=O)OC(c2ccccc2)C1Cl (mixture of isomers)
Ans. criterion met

Qu. Hello, is mean percentage of viable cells ± SD of the following compound strictly smaller than 50%? CC1CC(=O)OC(c2ccc(F)cc2)C1Cl (centres unmarked) [5c]
Ans. criterion not met
